# Lookup of reported Geo Mean Fluorescence keyed by entry
biological target: T1, human TrkA receptor on the cell surface (human, UniProt P04629 33-796); experiment: flow cytometry on TF-1 cells, 4 µg/ml; set-up: reference not given here
T1 construct: whole, on cells; PC12-hTrkA: high density; also called hTrkA; huTrkA
T1 sequence (P04629 33-796): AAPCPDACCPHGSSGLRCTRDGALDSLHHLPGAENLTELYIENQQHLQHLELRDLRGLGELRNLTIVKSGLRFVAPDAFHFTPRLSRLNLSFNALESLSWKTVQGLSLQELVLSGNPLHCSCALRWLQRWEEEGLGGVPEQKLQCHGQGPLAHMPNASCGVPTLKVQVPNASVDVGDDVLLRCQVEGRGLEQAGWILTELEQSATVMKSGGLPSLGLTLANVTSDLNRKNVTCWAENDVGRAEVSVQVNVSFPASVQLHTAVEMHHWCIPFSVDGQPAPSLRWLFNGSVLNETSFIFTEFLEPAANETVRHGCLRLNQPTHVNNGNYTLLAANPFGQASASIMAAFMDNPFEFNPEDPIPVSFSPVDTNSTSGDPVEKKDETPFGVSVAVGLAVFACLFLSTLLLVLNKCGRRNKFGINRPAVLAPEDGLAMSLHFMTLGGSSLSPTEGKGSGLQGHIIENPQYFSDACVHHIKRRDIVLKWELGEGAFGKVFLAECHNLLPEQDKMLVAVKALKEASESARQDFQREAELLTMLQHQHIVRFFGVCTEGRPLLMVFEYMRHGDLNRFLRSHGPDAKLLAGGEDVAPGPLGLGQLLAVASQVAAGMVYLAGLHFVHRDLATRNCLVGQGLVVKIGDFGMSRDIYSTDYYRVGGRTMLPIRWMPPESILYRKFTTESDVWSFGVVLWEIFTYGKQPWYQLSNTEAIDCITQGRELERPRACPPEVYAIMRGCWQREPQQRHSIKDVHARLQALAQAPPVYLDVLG
Answer using only a numeral; do not append any unit.

Completed entries (count: 4):
binder | Geo Mean Fluorescence
BXhVH5VL6 (antibody, human IgG1, V domains shown, Human IgG1 constant regions (IgG1 expression vectors); COS-7 supernatant; also called hVH5/hVL6) VH: EVKLLESGGGLVQPGGSLRLSCAASGFTFSTYTMSWVRQTPGKRLEWVAYISKGGGSTYYPDTVKGRFTISRDNSKNTLYLQMNSLRAEDTAVYYCARGAMYGNDFFYPMDYWGQGTTVTVSS VL: EIVLTQSPATLSLSPGEEATLSCSASSSVSYMHWYQQKPGQSPRLLIYTTSNLASGIPSRFSGSGSGTFYTLTISSLEPEDAADYYCHQWSSYPWTFGGGTKLEIK | 9.1
BXhVH1VL7 (antibody, human IgG1, V domains shown, Human IgG1 constant regions (IgG1 expression vectors); COS-7 supernatant; also called hVH1/hVL7) VH: EVKLLESGGGLVQPGGSLRLSCAASGFTFSTYTMSWVRQTPGKGLEWVAYISKGGGSTYYPDTVKGRFTISRDNSKNTLYLQMNSLRAEDTAVYYCAKGAMYGNDFFYPMDYWGQGTTVTVSS VL: QIVLTQSPATLSLSPGERATLSCSASSSVSYMHWYQQKPGQSPRLLIYTTSNLASGIPSRFSGSGSGTFYTLTISSLEPEDAADYYCHQWSSYPWTFGGGTKLEIK | 5.1
BXhVH1VL6 (antibody, human IgG1, V domains shown, Human IgG1 constant regions (IgG1 expression vectors); COS-7 supernatant; also called hVH1/hVL6) VH: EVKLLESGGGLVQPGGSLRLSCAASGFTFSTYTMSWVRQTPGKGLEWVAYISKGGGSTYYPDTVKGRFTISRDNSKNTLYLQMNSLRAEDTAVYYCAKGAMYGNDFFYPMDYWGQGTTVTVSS VL: EIVLTQSPATLSLSPGEEATLSCSASSSVSYMHWYQQKPGQSPRLLIYTTSNLASGIPSRFSGSGSGTFYTLTISSLEPEDAADYYCHQWSSYPWTFGGGTKLEIK | 4.9
BXhVH2VL7 (antibody, human IgG1, V domains shown, Human IgG1 constant regions (IgG1 expression vectors); COS-7 supernatant; also called hVH2/hVL7) VH: EVQLLESGGGLVQPGGSLRLSCAASGFTFSTYTMSWVRQTPGKRLEWVAYISKGGGSTYYPDTVKGRFTISRDNSKNTLYLQMNSLRAEDTAVYYCAKGAMYGNDFFYPMDYWGQGTTVTVSS VL: QIVLTQSPATLSLSPGERATLSCSASSSVSYMHWYQQKPGQSPRLLIYTTSNLASGIPSRFSGSGSGTFYTLTISSLEPEDAADYYCHQWSSYPWTFGGGTKLEIK | 6.5

What value of measured Geo Mean Fluorescence is listed for BXhVH1VL5 (antibody, human IgG1, V domains shown, Human IgG1 constant regions (IgG1 expression vectors); COS-7 supernatant; also called hVH1/hVL5) VH: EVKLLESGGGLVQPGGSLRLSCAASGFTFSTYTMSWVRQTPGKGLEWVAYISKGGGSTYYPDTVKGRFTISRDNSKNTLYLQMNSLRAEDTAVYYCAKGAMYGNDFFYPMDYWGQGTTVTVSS VL: QIVLTQSPATLSLSPGERATLSCSASSSVSYMHWYQQKPGQSPRLLIYTTSNLASGIPSRFSGSGSGTDYTLTISSLEPEDAADYYCHQWSSYPWTFGQGTKLEIK ?
4.5
